Field: max_counts. Provide a value for each of the sequences that follow.
Test system: USP8 MIT domain
Assay: Proteomic peptide-phage display (ProP-PD) selection against USP8 MIT domain
Assay type: binding, human
Settings: Total NGS counts
Just the number, please, no unit after it.

Requested read-out: max_counts. Entry: SQKELESYMMRAQQLL [SYNE2_853 − 868, Nesprin-2 peptide]
21

Consider the sequence VLSKRKGGNVGKSKRD [ERVK-21, Endogenous retrovirus group K member 21 Env polyprotein peptide 676-691] and give its measured max_counts.
18

// max_counts lookup, key: SEVSDIESRIAALRAA [MLPH481 − 496, melanophilin peptide]
33

What measured max_counts goes with EVEHRDLEDRYNQLLK [Girdin1192 − 1207, CCDC88A-encoded protein Girdin peptide] ?
80

FYI, the data here is from paper PMC12057046.
